B1: SH3 and PX domain-containing protein 2B, residues 155 to 209; numbered along this chain, A1X283 (parent)
chain: EQYVVVANYQKQESSEISLSVGQVVDIIEKNESGWWFVSTAEEQGWVPATCLEGQ

Variants of: B1
assay-method-text: abundance fitness (aPCA) (normalised: wild type 0, dead -1); higher = more abundant; growth selection in yeast, the domain comes from the species named
run-conditions: Homo sapiens
Give Fulfilled when the value for abundance fitness is at least -0.3. Give Not fulfilled when it is less.

V24S = Fulfilled

// inclusive: abundance fitness at least -0.3? input: F37Y
Fulfilled

// inclusive: abundance fitness at least -0.3? input: I27N
Not fulfilled
